assay: antimalarial activity against Dd2 strain (AID 2302);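 note: 0% = DMSO untreated growth and 100% = chloroquine plus artemisinin killed control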; conditions: P. falciparum Dd2 in RBCs, LDH growth readout, 72 h; at 2 µM; stronger effect = higher value
Active and inactive are the calls of the source.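 Rule for the calls: active = growth inhibition above 50% at the single 2 µM test dose, taken to imply half-maximal potency below 2 µM; inactive = the rest.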
growth inhibition overview
quantity_name: growth inhibition

| compound | quantity_name | recorded_measurement |
| --- | --- | --- |
| CN(C)Cc1c(O)ccc2[nH]c(-c3cccc(F)c3)nc12 | growth inhibition | 71% (active) |
| COc1ccccc1-c1ccc(C(=O)NCC2CCCN(Cc3cccc(C(F)(F)F)c3)C2)s1 (stereo not given) | growth inhibition | 37% (inactive) |
| Cc1ccc2nc(NC#N)[nH]c2c1 | growth inhibition | -3% (inactive) |
| O=C(Nc1cccc(-c2ccc(-c3nc4ccc(C(F)(F)F)cc4[nH]3)cc2)c1)c1csnn1 | growth inhibition | 93% (active) |
| O=C(CCCCCNC(=O)c1ccc(O)c(-c2ccc(Cl)c(Cl)c2)c1)NCCN1CCOCC1 | growth inhibition | 0% (inactive) |
| CCOC(=O)c1ccc(N=C2SC(=Cc3cc(Br)ccc3O)C(=O)N2C)cc1 | growth inhibition | 96% (active) |
| Cc1c(CNCCCNc2nc3ccccc3[nH]2)[nH]c2cc(Cl)cc(Cl)c12 | growth inhibition | -1% (inactive) |
| Cc1cnc(N2CCN(CCCN3CCCC3)CC2)nc1Oc1ccc(-n2ccnc2)cc1 | growth inhibition | 82% (active) |
| O=C(N[C@@H](Cc1ccccc1)[C@H](O)CNCCC(F)(F)F)c1cccc(CCC2CC2)c1 | growth inhibition | 13% (inactive) |
| Cc1cc(C)cc(OCC(O)CN(Cc2cc(Cl)cc(Cl)c2)C(=O)Nc2ccccc2Cl)c1 (stereo not given) | growth inhibition | 37% (inactive) |
